Numbers sourced from PubChem BioAssay (NCATS).

Biological target: Estrogen receptor (Homo sapiens) (UniProt P03372)
Sequence (P03372 whole entry, looked up): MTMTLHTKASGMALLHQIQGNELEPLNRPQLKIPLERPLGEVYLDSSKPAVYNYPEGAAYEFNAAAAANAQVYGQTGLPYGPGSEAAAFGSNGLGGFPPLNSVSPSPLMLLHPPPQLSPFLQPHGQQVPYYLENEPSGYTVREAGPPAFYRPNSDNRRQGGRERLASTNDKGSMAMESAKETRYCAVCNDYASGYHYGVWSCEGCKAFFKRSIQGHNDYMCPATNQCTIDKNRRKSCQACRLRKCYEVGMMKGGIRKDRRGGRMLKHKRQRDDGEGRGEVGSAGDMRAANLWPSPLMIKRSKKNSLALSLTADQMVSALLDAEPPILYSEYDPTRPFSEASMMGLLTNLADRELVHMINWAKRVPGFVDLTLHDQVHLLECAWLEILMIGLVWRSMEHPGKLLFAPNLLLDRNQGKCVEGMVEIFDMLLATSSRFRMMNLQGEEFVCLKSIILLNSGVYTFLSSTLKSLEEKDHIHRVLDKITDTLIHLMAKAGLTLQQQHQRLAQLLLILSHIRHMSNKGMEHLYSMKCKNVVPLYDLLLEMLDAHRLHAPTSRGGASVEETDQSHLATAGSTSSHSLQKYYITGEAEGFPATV
Assay: qHTS assay for small molecule agonists of estrogen receptor alpha signaling (AID 588514); further: nearly all actives have a fitted effect of over 70% in size
Conditions: ER-alpha-UAS-bla HEK293, beta-lactamase ratio, 18 h; series mostly up to 76.8 µM
Records with an inconclusive call do not appear. Calls of active or inactive are those of the source. The call rests on the fitted dose curve.
Select the correct class. Options are t for active, f for inactive and nothing else.

Recorded results for 8 molecules are shown here.
# MOLECULE, ASSIGNED CATEGORY
rows = [
    ("Cc1cscn1", "f"),
    ("O=Cc1c(Cl)cccc1Cl", "f"),
    ("CC(C)=CCC/C(C)=C/C=O", "f"),
    ("C=Cc1ccccc1C=C", "f"),
    ("Cc1ccc(CO)cc1", "f"),
    ("Cc1cccc(C(=O)O)c1", "f"),
    ("O=C1OC(=O)c2cc([N+](=O)[O-])ccc21", "f"),
    ("Cc1cc(C)cc([N+](=O)[O-])c1", "f"),
]

[ask] What did this assay record as the result for NC(=O)NC(N)=O ?
[reply] f

[ask] Called result for CCOc1cccc(N)c1
[reply] f

[ask] Dear colleague, could you share the recorded outcome for CC(C)N=C=NC(C)C when you have a moment?
[reply] f

[ask] Please indicate how the test categorized Cc1ccccc1C#N .
[reply] f

[ask] Call for entry C/C=C(/C)C#N :
[reply] f

[ask] What outcome does the record of this test show for c1ccc2c(c1)Oc1ccccc1S2 ?
[reply] f

[ask] Kindly provide the recorded test outcome for the following molecule: NC(=O)c1cccc([N+](=O)[O-])c1
[reply] f
